- SYSTEM_TESTED: Glucagon receptor (Homo sapiens)
- Sequence (P47871 whole entry): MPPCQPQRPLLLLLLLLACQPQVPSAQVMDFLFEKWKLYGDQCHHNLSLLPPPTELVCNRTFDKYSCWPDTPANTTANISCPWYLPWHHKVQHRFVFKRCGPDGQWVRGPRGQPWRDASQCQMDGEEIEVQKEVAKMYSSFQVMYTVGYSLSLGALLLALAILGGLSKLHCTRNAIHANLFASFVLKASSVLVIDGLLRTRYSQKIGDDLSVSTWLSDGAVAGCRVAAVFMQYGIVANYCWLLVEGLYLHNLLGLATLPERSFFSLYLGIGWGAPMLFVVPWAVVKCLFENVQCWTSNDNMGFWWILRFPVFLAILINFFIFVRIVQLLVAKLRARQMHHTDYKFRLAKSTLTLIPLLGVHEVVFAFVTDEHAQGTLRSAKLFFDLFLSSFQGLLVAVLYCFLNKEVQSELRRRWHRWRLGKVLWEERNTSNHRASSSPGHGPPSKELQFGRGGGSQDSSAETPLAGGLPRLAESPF
- PROTOCOL: Inhibition of human cloned glucagon receptor expressed in BHK cells
- Assay type: cell-based
RESULT_TYPE: IC50

| MOLECULE | SYSTEM_TESTED | RESULT_TYPE | VALUE |
| --- | --- | --- | --- |
| CC(C)(CC(=O)O)NC(=O)c1ccc(CN(C(=O)Nc2ccc(OC(F)(F)F)cc2)C2CCC(C(C)(C)C)CC2)cc1 (stereo not drawn) | Glucagon receptor (Homo sapiens) | IC50 | > 10 µM |
| COC1CCC(N(Cc2ccc(C(=O)NCCC(=O)O)cc2)C(=O)Nc2ccc(OC(F)(F)F)cc2)CC1 (stereo not drawn) | Glucagon receptor (Homo sapiens) | IC50 | > 10 µM |

Query molecule follows.
IN: Field: IC50 (Glucagon receptor (Homo sapiens)). Entry: CC(C)(C)C1CCC(N(Cc2ccc(C(=O)N3CCCC(C(=O)O)C3)cc2)C(=O)Nc2ccc(OC(F)(F)F)cc2)CC1 (stereo not drawn)
OUT: 1 µM

* * *

Heads up, these molecules all have pIC50 values measured for Glucagon-like peptide 1 receptor (Homo sapiens).
Quick note: pIC50 values are minus log10 of concentrations in mol/L.

Sample answers from the record:
| SAMPLE_SMILES | pIC50 |
| --- | --- |
| O=C(O)CCNC(=O)c1ccc(CN(CCC(c2ccccc2)c2ccccc2)C(=O)c2ccc(Cl)nc2)cc1 | 4.00 |
| O=C(O)CCNC(=O)c1ccc(CN(C(=O)Nc2cc(Cl)cc(Cl)c2)c2ccc(C3=CCCCC3)cc2)cc1 | 5.31 |

Query molecule follows.
IN: Need pIC50, item `CC(C)(C)[C@H]1CC[C@H](N(Cc2ccc(C(=O)NCCC(=O)O)cc2)C(=O)Nc2ccc(OC(F)(F)F)cc2)CC1`
OUT: 6.00

* * *

- PROTOCOL: Metabolic stability in iv dosed dog
- Format: ADME, organism-based, Canis lupus familiaris
- MEASUREMENT_SETUP: in vivo
// reported half-life for each item listed
Just the number in h, nothing appended.

| SAMPLE_SMILES | RESULT_TYPE | VALUE |
| --- | --- | --- |
| CC(C)(C)[C@H]1CC[C@H](N(Cc2ccc(C(=O)NCCC(=O)O)cc2)C(=O)Nc2ccc(OC(F)(F)F)cc2)CC1 | half-life | 1.68 |

Query molecule follows.
IN: Need half-life, item `O=C(O)CCNC(=O)c1ccc(CN(C(=O)Nc2cc(Cl)cc(Cl)c2)c2ccc(C3=CCCCC3)cc2)cc1`
OUT: 1.53

* * *

// reported bioavailability for each item listed
- PROTOCOL: Bioavailability in orally dosed dog
- Assay type: ADME, organism-based, Canis lupus familiaris
- MEASUREMENT_SETUP: in vivo, po
Just the number in %, nothing appended.

| SAMPLE_SMILES | UNIT_DESCRIPTOR | bioavailability |
| --- | --- | --- |
| O=C(O)CCNC(=O)c1ccc(CN(C(=O)Nc2cc(Cl)cc(Cl)c2)c2ccc(C3=CCCCC3)cc2)cc1 | % | 65 |

Query compound follows.
IN: Need bioavailability, item `CC(C)(C)[C@H]1CC[C@H](N(Cc2ccc(C(=O)NCCC(=O)O)cc2)C(=O)Nc2ccc(OC(F)(F)F)cc2)CC1`
OUT: 10

* * *

- SYSTEM_TESTED: Glucagon receptor (Rattus norvegicus, UniProt P30082)
- Sequence (P30082 whole entry): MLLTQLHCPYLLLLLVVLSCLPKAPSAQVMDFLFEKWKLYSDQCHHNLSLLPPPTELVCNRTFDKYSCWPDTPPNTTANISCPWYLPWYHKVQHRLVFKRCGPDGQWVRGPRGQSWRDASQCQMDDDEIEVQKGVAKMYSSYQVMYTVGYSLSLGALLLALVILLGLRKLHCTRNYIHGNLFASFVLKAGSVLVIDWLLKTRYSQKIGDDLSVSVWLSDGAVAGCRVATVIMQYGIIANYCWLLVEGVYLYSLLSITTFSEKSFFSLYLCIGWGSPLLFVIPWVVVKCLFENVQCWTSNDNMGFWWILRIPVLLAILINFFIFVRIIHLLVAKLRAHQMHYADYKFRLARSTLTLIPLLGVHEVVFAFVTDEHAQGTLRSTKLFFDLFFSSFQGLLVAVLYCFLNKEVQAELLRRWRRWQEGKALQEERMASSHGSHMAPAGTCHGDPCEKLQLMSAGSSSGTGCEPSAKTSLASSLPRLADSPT
RESULT_TYPE: IC50 (nM)
Just the number in nM, nothing appended.

IN: Field: IC50 (Glucagon receptor (Rattus norvegicus, UniProt P30082)). Entry: `CC(C)(C)[C@H]1CC[C@H](N(Cc2ccc(C(=O)NCCC(=O)O)cc2)C(=O)Nc2ccc(OC(F)(F)F)cc2)CC1`
OUT: 56
